- System name: T1, purified recombinant human α5β1 integrin heterodimer, 6×His tagged (rh-α5β1); Acro Biosystems, cat. no. … (human, UniProt P08648 42-995; P05556 21-728)
- T1 construct: bought recombinant heterodimer; also called rh-α5β1-6×His tagged protein; His-tagged-α5β1
- T1 sequence (P08648 42-995 limits assumed, form in doubt, chain 1 of 2): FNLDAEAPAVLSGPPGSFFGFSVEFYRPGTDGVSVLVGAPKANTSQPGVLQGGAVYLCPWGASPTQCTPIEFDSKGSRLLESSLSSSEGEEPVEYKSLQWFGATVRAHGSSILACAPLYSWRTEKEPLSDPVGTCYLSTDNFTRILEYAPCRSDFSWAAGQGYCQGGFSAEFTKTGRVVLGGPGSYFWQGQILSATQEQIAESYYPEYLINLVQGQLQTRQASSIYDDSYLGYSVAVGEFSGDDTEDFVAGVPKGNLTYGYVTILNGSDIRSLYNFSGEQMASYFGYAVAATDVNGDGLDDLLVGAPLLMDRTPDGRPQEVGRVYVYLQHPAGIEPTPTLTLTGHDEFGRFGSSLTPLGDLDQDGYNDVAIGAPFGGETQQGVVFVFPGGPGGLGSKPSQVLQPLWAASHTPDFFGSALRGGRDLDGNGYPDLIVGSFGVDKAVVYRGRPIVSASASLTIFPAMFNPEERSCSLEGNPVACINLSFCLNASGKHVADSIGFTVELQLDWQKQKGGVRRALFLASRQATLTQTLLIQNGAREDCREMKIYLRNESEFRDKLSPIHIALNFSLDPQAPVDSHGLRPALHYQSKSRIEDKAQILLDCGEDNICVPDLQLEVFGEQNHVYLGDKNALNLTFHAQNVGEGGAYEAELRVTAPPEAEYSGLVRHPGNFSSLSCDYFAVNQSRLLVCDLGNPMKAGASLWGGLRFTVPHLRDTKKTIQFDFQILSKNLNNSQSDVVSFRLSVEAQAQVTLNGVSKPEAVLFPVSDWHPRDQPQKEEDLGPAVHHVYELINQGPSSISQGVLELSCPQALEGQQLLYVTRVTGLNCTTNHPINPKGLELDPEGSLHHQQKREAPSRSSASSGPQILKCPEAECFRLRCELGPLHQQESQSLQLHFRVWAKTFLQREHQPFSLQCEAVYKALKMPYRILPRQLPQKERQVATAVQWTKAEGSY
- T1 sequence (P05556 21-728 limits assumed, form in doubt, chain 2 of 2): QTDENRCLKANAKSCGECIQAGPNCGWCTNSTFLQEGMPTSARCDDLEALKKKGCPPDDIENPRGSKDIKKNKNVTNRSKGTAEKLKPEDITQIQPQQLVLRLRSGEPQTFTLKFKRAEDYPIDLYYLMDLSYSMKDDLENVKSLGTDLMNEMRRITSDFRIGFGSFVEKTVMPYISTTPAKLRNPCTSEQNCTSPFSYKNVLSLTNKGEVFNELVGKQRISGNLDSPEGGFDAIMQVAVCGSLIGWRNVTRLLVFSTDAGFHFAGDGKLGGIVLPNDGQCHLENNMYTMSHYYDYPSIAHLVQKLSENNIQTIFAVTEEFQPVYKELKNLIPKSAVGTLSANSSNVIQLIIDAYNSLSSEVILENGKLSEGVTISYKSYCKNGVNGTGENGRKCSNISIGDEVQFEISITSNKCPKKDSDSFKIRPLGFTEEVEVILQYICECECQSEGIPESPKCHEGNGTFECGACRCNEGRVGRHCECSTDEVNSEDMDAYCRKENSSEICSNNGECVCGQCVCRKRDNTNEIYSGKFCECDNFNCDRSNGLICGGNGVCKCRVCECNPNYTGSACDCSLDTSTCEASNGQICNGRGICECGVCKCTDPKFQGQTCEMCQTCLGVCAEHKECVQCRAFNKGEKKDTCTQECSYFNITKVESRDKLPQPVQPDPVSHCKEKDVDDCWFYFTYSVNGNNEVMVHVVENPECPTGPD
- Assay overview: BLI (Octet), supernatant mAb on anti-mouse IgG Fc sensor, 20 nM rh-α5β1
koff: recorded values

| Binder | koff (s⁻¹) |
| --- | --- |
| A-11G01 (antibody, V domains shown, mouse hybridoma antibody) VH: QVQLKESGPGLVAPSQSLSITCTISGFSLTTYGVHWVRQPPGKGLEWLVVIWSDGSTTYNSALKSRLNITKDNSKSQVFLKMNSLQTDDTAMYYCVRHGGLLRRDAMDYWGQGTSVTVSS VL: QIVLTQSPAIMSASLGERVTMTCTASSSVSSNSFHWYQQKPGSSPKLWLYSTSNLASGVPARFSGSGSGTSYSLTISSMEAEDAATYYCHQYLRSPPTFGGGTKLEIK | 0.00132 |
| A-14G08 (antibody, V domains shown, mouse hybridoma antibody) VH: QVQLQQPGAELVKPGASVKLSCKASGYTFTIYWINWVKQRPGQGLEWIGKIYPGSISTDYNEKFKSKATLTVDTSSSTAYMQLSSLTSDDSAVYYCAITGTGGLAYWGQGTLVTVSA VL: ENVLTQSPAIMSASLGEKVTMTCRASSSVNYMYWYQQKSDASPKLWIYFTSSLAPGVPGRFSGSGSGNSYSLTISTMEGEDAATYYCQQFTTSPFTFGSGTKLEIK | 0.000198 |
| C-8G11 (antibody, V domains shown, mouse hybridoma antibody) VH: QVQLKESGPDLVAPSQSLSITCTVSGFSLTDYGVHWVRQPPGKGLEWLVVIWSDGSTTYNSALKSRLSITKDTSKRQVFLKMNSLQTDDTAMYYCARHAPSFIRYGSRYDALDYWGQGTSVTVSS VL: QIVLTQSPAIMSASLGERVTLTCTASSSVTSSFLHWYQQKPGSSPKLWIYSTSNLASGVPARFSGSGSGTSYSLTISSMEAEDAATYYCHQYHRSPPTFGGGTKLEIK | 0.00012 |
| A-7D06 (antibody, V domains shown, mouse hybridoma antibody) VH: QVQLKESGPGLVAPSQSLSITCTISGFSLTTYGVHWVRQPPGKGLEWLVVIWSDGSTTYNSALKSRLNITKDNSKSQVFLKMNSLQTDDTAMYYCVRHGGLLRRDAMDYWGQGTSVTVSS VL: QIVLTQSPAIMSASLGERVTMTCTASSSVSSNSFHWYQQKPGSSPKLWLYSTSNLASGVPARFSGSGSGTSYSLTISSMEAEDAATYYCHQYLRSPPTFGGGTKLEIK | 0.00128 |
| A2-7A05 (antibody, V domains shown, mouse hybridoma antibody; also called A2-7A05 (hybridoma)) VH: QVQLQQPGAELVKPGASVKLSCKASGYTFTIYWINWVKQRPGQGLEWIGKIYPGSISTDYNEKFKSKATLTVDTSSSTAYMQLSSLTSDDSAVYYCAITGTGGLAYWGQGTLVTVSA VL: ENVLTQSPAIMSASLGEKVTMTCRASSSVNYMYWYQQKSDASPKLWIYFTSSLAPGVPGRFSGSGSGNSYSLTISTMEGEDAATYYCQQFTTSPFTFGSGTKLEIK | 0.000178 |
| A-3A08 (antibody, V domains shown, mouse hybridoma antibody) VH: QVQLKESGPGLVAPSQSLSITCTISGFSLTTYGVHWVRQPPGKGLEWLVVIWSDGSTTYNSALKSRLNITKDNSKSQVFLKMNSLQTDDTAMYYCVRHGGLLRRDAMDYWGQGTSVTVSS VL: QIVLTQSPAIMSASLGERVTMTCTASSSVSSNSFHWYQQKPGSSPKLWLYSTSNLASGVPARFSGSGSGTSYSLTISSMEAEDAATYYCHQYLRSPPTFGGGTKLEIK | 0.00124 |
| A2-5D10 (antibody, V domains shown, mouse hybridoma antibody) VH: QVQLKESGPGLVAPSQSLSITCTISGFSLTSYGVHWVRQPPGKGLEWLVVIWSDGSTTYNSTLKSRLSISKDNSKSQVFLKMNSLQTDDTAMYYCARHYDYDGDWFAYWGQGTLVTVSA VL: QILLTQSPAIMSASLGERVTMTCTASSSVSSRCLHWYQQKPGSSPKLWIYSTSNLASGVPARFRGSGSGTSYSLTISSMEAEDAATYYCHQYYRSPPTFGGGTKLEIK | 0.00161 |
| A-15B08 (antibody, V domains shown, mouse hybridoma antibody; also called A-15B08 (hybridoma)) VH: QVQLKESGPGLVAPSQSLSITCTISGFSLTSYGVHWVRQPPGKGLEWLVVIWSDGSTTYNSTLKSRLSISKDNSKSQVFFKMNSLQTDDTAMYYCARHYDYDGDWFAYWGQGTLVTVSA VL: QIVLTQSPAIMSASLGERVTMTCTASSRVSSNSLHWYQQKPGSSPKLWIYSTSNLASGVPARFSGSGSGTSYSLTISSMEAEDAATYYCHQYLRSPPTFGGGTKLEIK | 0.000431 |
| A2-9A11 (antibody, V domains shown, mouse hybridoma antibody) VH: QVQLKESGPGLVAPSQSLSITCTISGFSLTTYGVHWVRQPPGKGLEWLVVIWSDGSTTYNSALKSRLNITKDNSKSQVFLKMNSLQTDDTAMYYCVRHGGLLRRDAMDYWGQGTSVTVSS VL: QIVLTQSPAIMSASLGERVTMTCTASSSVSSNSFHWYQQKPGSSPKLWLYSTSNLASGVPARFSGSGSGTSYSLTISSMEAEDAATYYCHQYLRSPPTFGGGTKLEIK | 0.00139 |
| A2-8H11 (antibody, V domains shown, mouse hybridoma antibody) VH: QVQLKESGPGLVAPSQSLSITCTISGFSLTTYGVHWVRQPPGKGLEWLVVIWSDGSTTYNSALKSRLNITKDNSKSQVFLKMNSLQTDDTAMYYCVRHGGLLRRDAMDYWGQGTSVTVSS VL: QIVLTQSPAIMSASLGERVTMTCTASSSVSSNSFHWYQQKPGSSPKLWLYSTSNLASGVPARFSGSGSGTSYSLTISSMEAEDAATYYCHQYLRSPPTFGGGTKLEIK | 0.00139 |
| A2-6C10 (antibody, V domains shown, mouse hybridoma antibody) VH: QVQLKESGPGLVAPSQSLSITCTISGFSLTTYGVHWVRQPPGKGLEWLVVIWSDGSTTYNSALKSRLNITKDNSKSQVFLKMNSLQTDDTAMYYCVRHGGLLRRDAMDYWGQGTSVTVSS VL: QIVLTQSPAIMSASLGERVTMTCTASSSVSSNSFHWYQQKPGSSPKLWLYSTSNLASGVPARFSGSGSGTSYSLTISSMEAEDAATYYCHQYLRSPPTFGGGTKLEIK | 0.000911 |
